Test system: EBOV
TEST_SUMMARY: microbe, parasite or virus in culture
Format: cell-based, Ebola virus
CONDITION: Zaire ebolavirus
ASSAY_READOUT: IC50 (nM)
Record the value in nM, omitting the unit from your answer.

QUERY: GET IC50 where system = EBOV and item = NC(=O)c1cn([C@@H]2O[C@H](CO)[C@@H](O)[C@H]2O)c2ncnc(N)c12
RESULT: 60

====

This listing pairs compounds with measured pIC50.
System: EBOV L (RdRp) activity
TEST_SUMMARY: cells
Assay type: cell-based, Ebola virus
CONDITION: Zaire ebolavirus, HEK293T/17, 24 h, read-out: IC50 (minigenome luciferase)
Conceptually, pIC50 converts a concentration in mol/L into minus its log10.

1. CCC(CC)COC(=O)[C@H](C)N[P@](=O)(OC[C@H]1O[C@@](C#N)(c2ccc3c(N)ncnn23)[C@H](O)[C@@H]1O)Oc1ccccc1 [Remdesivir, remdesivir, reference compound] | 5.84

QUERY: GET pIC50 where system = EBOV L (RdRp) activity and item = NC(=O)c1cn([C@@H]2O[C@H](CO)[C@@H](O)[C@H]2O)c2ncnc(N)c12
RESULT: 7.33

====

System: EBOV
TEST_SUMMARY: microbe, parasite or virus in culture
Assay type: cell-based, Ebola virus
CONDITION: Zaire ebolavirus, Huh-7, 8 h, read-out: Huh7 IC50
ASSAY_READOUT: pIC50
Conceptually, pIC50 converts a concentration in mol/L into minus its log10.

1. CCC(CC)COC(=O)[C@H](C)N[P@](=O)(OC[C@H]1O[C@@](C#N)(c2ccc3c(N)ncnn23)[C@H](O)[C@@H]1O)Oc1ccccc1 [Remdesivir, remdesivir, reference compound] | 6.93

Now turn to the next molecule.
QUERY: State its pIC50: NC(=O)c1cn([C@@H]2O[C@H](CO)[C@@H](O)[C@H]2O)c2ncnc(N)c12 [Sangivamycin]
RESULT: 7.14

====

Test system: EBOV
TEST_SUMMARY: microbe, parasite or virus in culture
Type: cell-based, Ebola virus
CONDITION: Zaire ebolavirus, Huh-7, 2 h, read-out: Huh7 IC50
This listing pairs molecules with measured pIC50.
Conceptually, pIC50 converts a concentration in mol/L into minus its log10.

1) NC(=O)c1cn([C@@H]2O[C@H](CO)[C@@H](O)[C@H]2O)c2ncnc(N)c12 | 6.98

Now turn to the next molecule.
QUERY: State its pIC50: CCC(CC)COC(=O)[C@H](C)N[P@](=O)(OC[C@H]1O[C@@](C#N)(c2ccc3c(N)ncnn23)[C@H](O)[C@@H]1O)Oc1ccccc1 [Remdesivir, remdesivir, reference compound]
RESULT: 7.13

====

TEST_SUMMARY: in vitro
CONDITION: human
This listing pairs compounds with measured CC50.
Record the value in µM, omitting the unit from your answer.

1. CN(Cc1cnc2nc(N)nc(N)c2n1)c1ccc(C(=O)N[C@@H](CCC(=O)O)C(=O)O)cc1 [NSC 740] | 0.13
2. C#CCC(Cc1cnc2nc(N)nc(N)c2n1)c1ccc(C(=O)N[C@@H](CCC(=O)O)C(=O)O)cc1 (some centres unmarked) [NSC 754230] | 0.004

QUERY: State its CC50: COc1cc(NS(C)(=O)=O)ccc1Nc1c2ccccc2nc2ccccc12 [NSC 249992]
RESULT: 22

QUERY: State its CC50: CCc1nc(N)nc(N)c1-c1ccc(Cl)cc1 [NSC 3061]
RESULT: 22

====

TEST_SUMMARY: in vitro
ASSAY_READOUT: CC50

QUERY: State its CC50: NC(=O)c1cn([C@@H]2O[C@H](CO)[C@@H](O)[C@H]2O)c2ncnc(N)c12
RESULT: > 600 nM
